Every entry's value here was drawn from patent US20230000870A1.

biological target: CDK9/Cyclin T1 complex (Homo sapiens); experiment: CDK9 kinase inhibition assay (Caliper/LabChip EZ Reader); conditions: CDK9/Cyclin T1 8 nM, ATP 2 mM, 15 min at 27° C.
Sequence (P50750 whole entry): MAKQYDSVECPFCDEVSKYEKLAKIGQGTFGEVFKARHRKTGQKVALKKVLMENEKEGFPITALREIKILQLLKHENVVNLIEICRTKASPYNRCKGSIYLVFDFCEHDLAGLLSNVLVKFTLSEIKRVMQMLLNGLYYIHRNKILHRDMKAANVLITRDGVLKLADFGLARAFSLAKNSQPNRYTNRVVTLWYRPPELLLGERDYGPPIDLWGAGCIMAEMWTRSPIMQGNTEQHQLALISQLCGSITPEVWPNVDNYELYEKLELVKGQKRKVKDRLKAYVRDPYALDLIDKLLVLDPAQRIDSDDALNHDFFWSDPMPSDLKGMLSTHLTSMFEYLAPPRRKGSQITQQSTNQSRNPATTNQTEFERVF
Sequence (O60563 whole entry partner): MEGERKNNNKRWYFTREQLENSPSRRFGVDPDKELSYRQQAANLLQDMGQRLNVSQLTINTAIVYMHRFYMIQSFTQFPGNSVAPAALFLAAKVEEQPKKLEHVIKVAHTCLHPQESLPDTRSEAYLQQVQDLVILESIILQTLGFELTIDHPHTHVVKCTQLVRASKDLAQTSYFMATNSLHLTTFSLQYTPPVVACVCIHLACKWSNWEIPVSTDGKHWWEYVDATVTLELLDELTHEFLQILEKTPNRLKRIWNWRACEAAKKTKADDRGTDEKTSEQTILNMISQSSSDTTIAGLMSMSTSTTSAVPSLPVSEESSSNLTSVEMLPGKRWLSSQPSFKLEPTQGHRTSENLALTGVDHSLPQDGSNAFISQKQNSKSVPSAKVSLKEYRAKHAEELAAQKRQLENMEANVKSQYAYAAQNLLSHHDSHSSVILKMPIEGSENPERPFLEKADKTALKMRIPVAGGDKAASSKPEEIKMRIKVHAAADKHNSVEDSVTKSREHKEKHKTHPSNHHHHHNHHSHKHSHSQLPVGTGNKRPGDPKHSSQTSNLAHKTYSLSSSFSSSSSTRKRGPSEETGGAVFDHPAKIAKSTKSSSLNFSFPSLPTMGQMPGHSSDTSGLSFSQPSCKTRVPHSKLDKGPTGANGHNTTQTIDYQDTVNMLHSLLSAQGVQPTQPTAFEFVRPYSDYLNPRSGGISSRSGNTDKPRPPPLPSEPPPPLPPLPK
quantity-measured: IC50

Consider the worked cases shown below.
>>> df
                                   compound  measured_result
0  CC1(O)CCN(C(=O)c2ccc3c(-c4nc(NC5CCCNC5)ncc4C(F)(F)F)c[nH]c3c2)C1 (stereo not drawn) [Compound 220]           ≥ 5 µM
1  FC1(F)CNC[C@@H](Nc2ncc(C(F)(F)F)c(-c3c[nH]c4ccccc34)n2)C1      0.2 to 5 µM
2  Cc1c(-c2ccc3c(-c4nc(NC5CCCNC5)ncc4C(F)(F)F)c[nH]c3c2)c[nH]c(=O)c1C#N (stereo not drawn)      0.2 to 5 µM
3  CCc1cnc(NC2CCCNC2)nc1-c1c[nH]c2c(S(=O)(=O)C(C)C)cccc12 (stereo not drawn)           ≥ 5 µM
4  N#Cc1cc2[nH]cc(-c3nc(NC4CCCNC4)ncc3C(F)(F)F)c2cc1F (stereo not drawn)      0.2 to 5 µM
5  OCc1cccc(-c2ccc3c(-c4nc(NC5CCCNC5)ncc4C(F)(F)F)c[nH]c3c2)n1 (stereo not drawn)           ≥ 5 µM

So for CCCc1cnc(N[C@H]2CCCNC2)nc1-c1c[nH]c2c(S(C)(=O)=O)c(C#N)ccc12 , the logged IC50 turned out to be ≥ 5 µM

So for CNC(=O)c1ccc2c(-c3nc(NC4CCCNC4)ncc3C(F)(F)F)c[nH]c2c1 (stereo not drawn) , the logged IC50 turned out to be 0.2 to 5 µM

So for O=C(c1ccc2c(-c3nc(NC4CCCNC4)ncc3C(F)(F)F)c[nH]c2c1)N1CCCC1 (stereo not drawn) , the logged IC50 turned out to be ≥ 5 µM

====

Biological target: CDK2/Cyclin E1 complex (Homo sapiens)
Assay: CDK2 kinase inhibition assay (Caliper/LabChip EZ Reader)
Details: CDK2/Cyclin E1 0.5 nM, ATP 2 mM, 35 min at 27° C.
Description: Compounds of the invention were assayed for inhibition of CDK7, CDK9, CDK12, and CDK2 activity at Biortus Biosciences (Jiangyin, Jiangsu Province, P.R. of China) using kinase assays for each CDK developed with a Caliper/LabChip EZ Reader (Perkin Elmer, Waltham, Mass.). […]
quantity-measured: IC50

                                   molecule  measured_result
0  OCc1ncccc1-c1ccc2c(-c3nc(NC4CCCNC4)ncc3C(F)(F)F)c[nH]c2c1 (centres unmarked)      0.2 to 5 µM

So for CCc1cnc(N[C@H]2CCCNC2)nc1-c1c[nH]c2c(S(=O)(=O)O)cccc12 , the logged IC50 turned out to be ≥ 5 µM

So for N#Cc1ccc2c(-c3nc(N[C@@H]4CNCC[C@H]4F)ncc3C(F)(F)F)c[nH]c2c1 , the logged IC50 turned out to be 0.2 to 5 µM

So for CC(=O)NCc1cccc(-c2ccc3c(-c4nc(NC5CCCNC5)ncc4C(F)(F)F)c[nH]c3c2)c1 (centres unmarked) , the logged IC50 turned out to be 0.2 to 5 µM

So for CC1(C)CCNC[C@@H]1Nc1ncc(C(F)(F)F)c(-c2c[nH]c3ccccc23)n1 , the logged IC50 turned out to be ≥ 5 µM
